// provenance: patent US11040053B2

- SYSTEM_NAME: human-STING(E149-S379)H232R protein (Homo sapiens, UniProt Q86WV6, H232R)
- Construct: His6 (C)
- Sequence (Q86WV6 with tags, fused parts or gaps H232R): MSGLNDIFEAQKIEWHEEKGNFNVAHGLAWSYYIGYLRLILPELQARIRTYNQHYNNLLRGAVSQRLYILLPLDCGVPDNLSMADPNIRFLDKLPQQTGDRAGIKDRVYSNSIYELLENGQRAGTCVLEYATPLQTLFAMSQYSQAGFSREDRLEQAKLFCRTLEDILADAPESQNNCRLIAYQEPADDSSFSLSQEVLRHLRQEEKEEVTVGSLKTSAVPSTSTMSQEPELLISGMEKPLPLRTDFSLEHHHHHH
- ASSAY_COMMENT: Surface Plasmon Resonance binding to hSTING WT
- CONDITION_PARAMETERS: Biacore T200, 15° C., steady-state analysis

COMPOUND | Kd [nM]
Nc1ncnc2c1ncn2[C@@H]1O[C@@H]2COP(=O)(O)O[C@H]3[C@@H](F)[C@H](n4cnc5c(N)ncnc54)O[C@@H]3COP(=O)(O)O[C@H]2[C@H]1F [3'3'-(2'F-A)(2'F-A), reference compound] | 11
Nc1nc2c(ncn2[C@@H]2O[C@@H]3CO[P@@](=O)(S)O[C@H]4[C@@H](F)[C@H](n5cnc6c(N)ncnc65)O[C@@H]4CO[P@@](=O)(S)O[C@H]3[C@H]2F)c(=O)[nH]1 [Compound 14] | 93
Nc1ncnc2c1ncn2[C@@H]1O[C@@H]2CO[P@@](=O)(S)O[C@H]3[C@@H](F)[C@H](n4cnc5c(N)ncnc54)O[C@@H]3CO[P@](=O)(S)O[C@H]2[C@H]1F [Compound 6a] | 29
Nc1nc2c(ncn2[C@@H]2O[C@@H]3CO[P@](=O)(S)O[C@H]4[C@@H](F)[C@H](n5cnc6c(N)ncnc65)O[C@@H]4CO[P@@](=O)(S)O[C@H]3[C@H]2F)c(=O)[nH]1 [Compound 14a] | 98
Nc1ncnc2c1ncn2[C@@H]1O[C@@H]2CO[P@@](=O)(S)O[C@H]3[C@@H](F)[C@H](n4cnc5c(N)ncnc54)O[C@@H]3CO[P@@](=O)(S)O[C@H]2[C@H]1F [Compound 6] | 1
Nc1nc2c(ncn2[C@@H]2O[C@@H]3CO[P@](=O)(S)O[C@H]4[C@@H](F)[C@H](n5cnc6c(N)ncnc65)O[C@@H]4CO[P@@](=O)(S)O[C@H]3[C@H]2O)c(=O)[nH]1 [Compound 24a] | 684
Nc1nc2c(ncn2[C@@H]2O[C@@H]3CO[P@@](=O)(S)O[C@H]4[C@@H](O)[C@H](n5cnc6c(N)ncnc65)O[C@@H]4CO[P@@](=O)(S)O[C@H]3[C@H]2F)c(=O)[nH]1 [Compound 23] | 311
Nc1nc2c(ncn2[C@@H]2O[C@@H]3CO[P@@](=O)(S)O[C@H]4[C@@H](F)[C@H](n5cnc6c(N)ncnc65)O[C@@H]4CO[P@@](=O)(S)O[C@H]3[C@H]2O)c(=O)[nH]1 [Compound 24] | 37
Nc1ncnc2c1ncn2[C@@H]1O[C@@H]2CO[P@@](=O)(S)O[C@H]3[C@@H](F)[C@H](n4cnc5c(N)ncnc54)O[C@@H]3CO[P@@](=O)(S)O[C@H]2[C@H]1O [Compound 22] | 1280
